The measured values listed here are drawn from patent US20240425571A1.

Molecular target: T1, human GARP (glycoprotein A repetitions predominant, LRRC32) on the cell surface (human, UniProt Q14392 20-662)
T1 construct: whole, on cells; also called hGARP; free GARP
T1 sequence (looked up): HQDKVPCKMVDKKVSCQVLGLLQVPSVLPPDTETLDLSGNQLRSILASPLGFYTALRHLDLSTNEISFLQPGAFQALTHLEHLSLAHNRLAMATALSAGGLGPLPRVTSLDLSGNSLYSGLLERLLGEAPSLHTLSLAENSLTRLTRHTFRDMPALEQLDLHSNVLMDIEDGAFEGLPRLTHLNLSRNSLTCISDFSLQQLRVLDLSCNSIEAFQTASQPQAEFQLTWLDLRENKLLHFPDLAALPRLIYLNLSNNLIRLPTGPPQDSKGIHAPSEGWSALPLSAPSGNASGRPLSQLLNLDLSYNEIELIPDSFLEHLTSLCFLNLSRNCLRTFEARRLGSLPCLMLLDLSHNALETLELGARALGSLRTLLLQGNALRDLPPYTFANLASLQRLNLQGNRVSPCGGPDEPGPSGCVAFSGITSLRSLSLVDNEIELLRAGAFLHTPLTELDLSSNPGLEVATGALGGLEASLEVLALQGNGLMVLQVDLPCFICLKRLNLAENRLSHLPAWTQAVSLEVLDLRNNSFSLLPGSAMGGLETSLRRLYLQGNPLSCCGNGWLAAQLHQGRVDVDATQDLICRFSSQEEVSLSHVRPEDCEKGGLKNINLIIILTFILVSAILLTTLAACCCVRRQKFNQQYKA
Experiment: FACS, Ag(+) cells, heated-sample series, 0 ug/ml antibody (blank)
assay_endpoint: MFI (MFI)
Give the quantity in MFI, number only.

[ask] Query: MFI; subject: huPIIO-1VH3VL2 (antibody, V domains shown, Humanized IgG from Expi293, tested as culture supernatant; also called H3L2) VH: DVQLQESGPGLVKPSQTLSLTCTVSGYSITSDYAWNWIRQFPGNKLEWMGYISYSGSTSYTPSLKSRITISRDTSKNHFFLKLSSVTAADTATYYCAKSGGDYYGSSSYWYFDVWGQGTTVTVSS VL: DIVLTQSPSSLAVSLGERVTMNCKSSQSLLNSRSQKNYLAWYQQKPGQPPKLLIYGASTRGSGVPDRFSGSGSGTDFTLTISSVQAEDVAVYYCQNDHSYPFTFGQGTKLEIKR
[reply] 9.91
